- tgt: human GRK5WT (Homo sapiens, UniProt P34947)
- Construct: human GRK5WT or GRK5D311N (residues 1–590 followed by a hexahistidine tag); hexahistidine (C); made in house; host or cells: E. coli Rosetta (DE3)
- Sequence (P34947 whole entry, the tested form may be a part): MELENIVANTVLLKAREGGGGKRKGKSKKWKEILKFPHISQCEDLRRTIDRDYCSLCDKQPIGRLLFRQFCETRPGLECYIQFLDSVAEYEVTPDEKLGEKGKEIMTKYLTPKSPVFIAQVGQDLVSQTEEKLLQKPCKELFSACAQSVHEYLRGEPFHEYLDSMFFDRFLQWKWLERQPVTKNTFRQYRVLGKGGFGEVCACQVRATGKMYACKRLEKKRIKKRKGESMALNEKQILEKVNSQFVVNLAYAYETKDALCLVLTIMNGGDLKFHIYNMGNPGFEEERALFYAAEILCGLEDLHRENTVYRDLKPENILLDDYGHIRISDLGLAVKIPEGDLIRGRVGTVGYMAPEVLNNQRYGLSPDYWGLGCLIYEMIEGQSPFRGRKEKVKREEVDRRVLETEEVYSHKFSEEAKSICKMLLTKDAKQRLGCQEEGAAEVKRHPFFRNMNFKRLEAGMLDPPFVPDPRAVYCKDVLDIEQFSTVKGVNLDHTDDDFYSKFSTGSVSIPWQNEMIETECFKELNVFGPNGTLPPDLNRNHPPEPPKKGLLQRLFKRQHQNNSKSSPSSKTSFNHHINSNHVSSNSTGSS
- measurement description: GRK kinase inhibition assay ([γ-32P]-ATP phosphorylation of tubulin or Rho*)
- Type: biochemical
- condition label: substrate tubulin; mean ± SD; read-out: GRK5 IC50
pIC50: −log10 of the molar value.

[
  {
    "record smiles": "[Cl-].[K+]",
    "tgt": "human GRK5WT (Homo sapiens, UniProt P34947)",
    "pIC50": 1.26
  }
]
